target: p53 Y220C (Homo sapiens, UniProt P04637, Y220C); assay: Luciferase Reporter Assay (Luc), p53 response element, NClH1299 cells with inducible p53 Y220C; type: cell-based; conditions: Emax; luciferase reporter, NClH1299 inducible p53 Y220C, 6 hour
Listing: Emax of selected molecules

Look over these answered cases.
Bench note: what Emax did COc1ccc(C(=O)NCC2(O)CC2)cc1NCC#Cc1cc2c(N[C@@H]3CCN(C)C[C@@H]3F)cccn2c1SC(F)(F)F [Example 417] show?
> 90%

Please answer likewise for CCNC(=O)c1ccc(OC)c(NCC#Cc2nn3c(N[C@@H]4CCN(C)C[C@@H]4F)cccc3c2SC(F)F)c1 [Example 318]
80 to 90%

Please answer likewise for C[C@@H](O)CNC(=O)c1ccc(NCC#Cc2cc3c(N[C@@H]4CCN(C)C[C@@H]4F)cccn3c2SC(F)(F)F)cc1 [Example 414]
> 90%

Please answer likewise for CNC(=O)c1ccc(NCC#Cc2cc3c(N[C@@H]4CCN(C)C[C@@H]4F)nccn3c2SC(F)(F)F)cc1 [Example 297]
> 90%

Please answer likewise for CNC(=O)CN1CC[C@@H](Nc2nccn3c(SC(F)(F)F)c(C#CCNc4cc(C(=O)NC)ccc4OC)cc23)[C@@H](F)C1 [Example 352]
> 90%

Please answer likewise for CNC(=O)c1ccc(OC)c(NCC#Cc2nn3c(N[C@@H]4CCN(C)C[C@@H]4F)cccc3c2SC(F)(F)F)n1 [Example 234]
80 to 90%

Kindly review the next molecule as well.
Bench note: what Emax did CNC(=O)c1cc(F)c(OC)c(NCC#Cc2nc3c(N[C@@H]4CCNC[C@@H]4F)cccn3c2SC(F)(F)F)c1 [Example 304] show?
> 90%

====

Listing: IC50 of selected compounds
test system: H1299 p53 Y220C; experiment: Cell Proliferation Assay (CellTiter-Glo, CTG), H1299 p53 Y220C (NClH1299-inducible p53 Y220C); type: cell-based; settings: Homo sapiens, NCI-H1299, 120 h, CellTiter-Glo, H1299 p53 Y220C, 5 days

Look over these answered cases.
Bench note: what IC50 did CNC(=O)c1ccc(OC)c(NCC#Cc2nc3c(N[C@@H]4CCNC[C@@H]4F)cccn3c2CC(F)(F)F)c1 [Example 222] show?
1.5 to 3 µM

Please answer likewise for COc1cc(S(C)(=O)=O)ccc1NCC#Cc1nc2c(N[C@@H]3CCNC[C@@H]3F)cccn2c1SC(F)(F)F [Example 83]
< 0.75 µM

Please answer likewise for CNC(=O)c1ccc(NCC#Cc2nc3c(N[C@H]4CCN(C)C(=O)C4)cccn3c2SC(F)(F)F)c(OC)c1 [Example 168]
< 0.75 µM

Kindly review the next compound as well.
Bench note: what IC50 did CNC(=O)c1ccc(NCC#Cc2nc3c(N[C@@H]4CCN(C)C[C@@H]4F)cccn3c2CC(F)(F)F)c(OC)c1 [Example 36] show?
0.75 to 1.5 µM

====

Listing: Emax of selected molecules
Molecular target: p53 Y220C (Homo sapiens, UniProt P04637, Y220C)
Assay: Luciferase Reporter Assay (Luc), p53 response element, NClH1299 cells with inducible p53 Y220C
Type: cell-based
Settings: Emax; luciferase reporter, NClH1299 inducible p53 Y220C, 6 hour
Description: Luciferase Reporter Assay Protocol The cells were then used for p53 reporter assay. 5,000 cells were seeded in each well of 384 plate and cultured in 0.5 ug/mL doxycycline (D3072; Sigma) containing medium for 24 hours before compound treatment. […] The luciferase activity was immediately measured with PheraStar microplate reader.

Bench note: what Emax did "CNC(=O)c1cnc(OC)c(NCC#Cc2cc3c(N[C@@H]4CN(C)C[C@@H]4F)cccn3c2SC(F)(F)F)c1" show?
> 90%

Please answer likewise for "CNC(=O)c1ccc(OC)c(NCC#Cc2cc3c(N[C@@H]4CN(C)C[C@@H]4F)nccn3c2SC(F)F)n1"
80 to 90%

Please answer likewise for "CNC(=O)c1ccc(OC)c(NCC#Cc2nn3c(N[C@@H]4CNC[C@@H]4F)cccc3c2SC(F)(F)F)c1"
80 to 90%

Please answer likewise for "CNC(=O)c1ccc(NCC#Cc2cc3c(N[C@@H]4CCN(C)C[C@@H]4F)cccn3c2SC(F)(F)F)c(C#N)c1"
> 90%

Please answer likewise for "CN1CC[C@@H](Nc2cccn3c(SC(F)(F)F)c(C#CCNc4cc(C(=O)NCC5(O)CC5)ccc4OC4COC4)cc23)[C@@H](F)C1"
> 90%

Others:
Bench note: what Emax did "COc1cc(S(N)(=O)=O)ccc1NCC#Cc1cc2c(N[C@@H]3CCN(C)C[C@@H]3F)cccn2c1SC(F)(F)F" show?
70 to 80%

Please answer likewise for "COc1cc(C(=O)NCC2(O)CC2)ccc1NCC#Cc1cc2c(N[C@@H]3CCNC[C@@H]3F)cccn2c1SC(F)(F)F"
80 to 90%
